readout_kind: melting point

>>> result("CNc1ccc(OC)cc1[N+](=O)[O-]")
"93 to 94 °C"
>>> result("Cc1ccc(-c2nnc(N3CCC4(CC3)OCCO4)nc2-c2ccc(C)cc2)cc1")
"169 to 170 °C"
>>> result("CC(C)C(=O)O[C@H]1[C@H](C)OC(=O)[C@@H](NC(=O)OC(C)(C)C)COC(=O)[C@@H]1CI")
"168 to 171 °C"
>>> result("COc1ccc(C=O)cc1C(C)(C)C")
"52 °C"
>>> result("CC(=O)S[C@H]1CNC(=S)C1")
"91 to 93 °C"
>>> result("Cn1c(=O)n(SC(Cl)(Cl)Cl)n(-c2ccccc2)c1=O")
"214 °C"
>>> result("CCCc1cc(Cl)c2sc(Cc3ccc(OC)cc3)c(C)c2c1O")
"114 to 116 °C"
>>> result("CCC(NC(Cc1cccnc1C)=NC#N)c1ccccc1 (centres undefined)")
"52 to 54 °C"
>>> result("CCN(CC)CCNc1ccc2c3c(nn2CCO)-c2c(O)ccc(O)c2C(=O)c13")
"231 to 234 °C"
>>> result("COC(=O)Cc1ccccc1NC(=S)NCN")
"149 to 150 °C"
>>> result("CCCCc1c(OC(=O)C(C)(C)C)n(-c2ccc(OC(C)=O)cc2)n(-c2ccccc2)c1=O")
"151 to 158 °C"
>>> result("CCCC1C/C(=C\\C(=O)NC2CC2)c2cc(F)ccc21 (centres undefined)")
"94 to 97 °C"
>>> result("OCc1cc2c(N=C3SC[C@@H]4Cc5ccccc5CN34)cccc2cn1")
"210 °C"
>>> result("CC1(O)OC(=O)C=C1c1ccccc1 (centres undefined)")
"105 to 107 °C"
>>> result("Fc1ccc(C=Cc2ccc(C3COC(c4c(F)cccc4F)=N3)cc2)cc1 (centres undefined)")
"154 to 156 °C"
>>> result("COc1cc(N(C)C)ccc1-c1nc2c(N[C@H]3[C@@H](C(N)=O)[C@@H]4C=C[C@H]3C4)ccnc2[nH]1")
"185 to 190 °C"
>>> result("CCN(C(=O)n1nnc2cc(C)c(C)cc21)c1ccccc1")
"136 °C"
>>> result("C[C@H](N)C(=O)NCc1cccc(Nc2n[nH]c3ncnc(Nc4cccc(Cl)c4)c23)c1")
"222 to 225 °C"
>>> result("Cc1cc2c(cc1C(F)(F)F)NC(=O)CC(c1cccc(-n3nncc3CNC3CC3)c1)=N2")
"181 °C"
>>> result("COc1ccc(Cn2c(N)c(Br)c(=O)[nH]c2=O)cc1")
"247 °C"
>>> result("COC(=O)c1cc(O)n2nc(C)nc2n1")
"170 to 174 °C"
>>> result("C=CCOC(=O)Cn1c(=O)n(S(=O)(=O)c2ccc(Cl)cc2)c(=O)c2ccccc21")
"164 to 166 °C"
>>> result("Oc1ccc(Oc2ccc3ccccc3n2)cc1")
"177 °C"
>>> result("Brc1ccc2c(c1)N=C(N1CCSCC1)c1cccc3c1N2CC3")
"165 to 167 °C"
>>> result("Cc1cc(C)cc(COC(=O)[C@H](Cc2ccc3ccccc3c2)NC(=O)OC(C)(C)C)c1")
"84 to 86 °C"
>>> result("N#Cc1[nH]c2ccc(C(=O)O)cc2c1-c1ccccc1")
"302 to 304 °C"
>>> result("OC(CCN1CC=C(c2ccc(Cl)cc2)CC1)c1ccc(F)cc1 (centres undefined)")
"130 to 132 °C"
>>> result("O=C(O)CCCCCCCCc1cccs1")
"32 to 33 °C"
>>> result("ON=CCCc1ccccc1")
"85 to 93 °C"
>>> result("N#CC1(C2CCCc3ccccc32)CC1 (centres undefined)")
"91 to 93 °C"
>>> result("c1ccc(-c2nn3cnnc3c3ccccc23)cc1")
"198 to 199 °C"
>>> result("NS(=O)(=O)Oc1ccc(-c2ccccc2)cc1")
"166 to 168 °C"
>>> result("COC(=O)NNc1cc(C)cc2c1OC(C)C2 (centres undefined)")
"82 to 84 °C"
>>> result("CC(C)CCCC(C)C1CCC2C3CC=C4CC(N)CCC4(C)C3CCC12C (centres undefined)")
"92 to 94 °C"
>>> result("Cc1cccc(C)c1/N=C1\\SCC(=O)N1N")
"149 to 152 °C"
>>> result("COc1ccc(-c2ccc3c(n2)CCC(C)(C)C3=O)cc1")
"158 to 159 °C"
>>> result("CCCCCCn1c(=O)n(C)c(=O)c2cnn(C)c21")
"106 to 107 °C"
>>> result("N#Cc1ccc([C@H]2CC[C@H](CCC=O)CC2)cc1")
"30 °C"
>>> result("C[C@@H](N(CC(=O)O)C(=O)c1ccc(C(F)(F)F)cc1)[C@](O)(Cn1cncn1)c1ccc(F)cc1F")
"132 to 135 °C"
>>> result("C=Cn1c2ccccc2c2cc(Br)ccc21")
"74 to 74.5 °C"
>>> result("CCCC1CCCCCc2c1oc(=O)c(C(c1ccccc1)C1CC1)c2O (centres undefined)")
"78 to 84 °C"
>>> result("NC(=O)c1nc(-c2ccccn2)n2c1CN=C(c1ccccc1Cl)c1cc(Cl)ccc1-2")
"255 to 257 °C"
>>> result("COC(=O)c1ccc(C(=O)NCCNC(=O)c2ccc(C(=O)OC)cc2)cc1")
"297 to 299 °C"
>>> result("CC(C)(O)c1nnn(Cc2cccc(C(F)(F)F)c2)c1I")
"77 to 80 °C"
